system.tested: Acetylcholinesterase (Electrophorus electricus)
Provide the recorded IC50 for the entries that follow.
Please state the figure in µM; there is no need to write the unit.

Q: Give the reported IC50 for Cc1ccc(CN(C(=O)/C=C/C(=O)N(Cc2ccc(C)cc2)c2ccc(Cl)cc2)c2ccc(Cl)cc2)cc1 (system: Acetylcholinesterase (Electrophorus electricus)).
A: 2.42

Q: Record: Cc1ccc(CN(C(=O)/C=C/C(=O)N(Cc2ccc(C)cc2)c2ccc(I)cc2)c2ccc(I)cc2)cc1
A: 17.7

Q: Record: Cc1ccc(CN(C(=O)/C=C/C(=O)N(Cc2ccc(C)cc2)c2ccc(C)cc2)c2ccc(C)cc2)cc1
A: 43.1

Q: Record: Cc1ccc(CN(C(=O)/C=C/C(=O)N(Cc2ccc(C)cc2)c2ccc(Br)cc2)c2ccc(Br)cc2)cc1
A: 0.14

Q: Record: COc1ccc(NCc2ccc(C)cc2)cc1
A: 1.33

----------
system.tested: Cholinesterase (Equus caballus, UniProt P81908)
Sequence (P81908 whole entry): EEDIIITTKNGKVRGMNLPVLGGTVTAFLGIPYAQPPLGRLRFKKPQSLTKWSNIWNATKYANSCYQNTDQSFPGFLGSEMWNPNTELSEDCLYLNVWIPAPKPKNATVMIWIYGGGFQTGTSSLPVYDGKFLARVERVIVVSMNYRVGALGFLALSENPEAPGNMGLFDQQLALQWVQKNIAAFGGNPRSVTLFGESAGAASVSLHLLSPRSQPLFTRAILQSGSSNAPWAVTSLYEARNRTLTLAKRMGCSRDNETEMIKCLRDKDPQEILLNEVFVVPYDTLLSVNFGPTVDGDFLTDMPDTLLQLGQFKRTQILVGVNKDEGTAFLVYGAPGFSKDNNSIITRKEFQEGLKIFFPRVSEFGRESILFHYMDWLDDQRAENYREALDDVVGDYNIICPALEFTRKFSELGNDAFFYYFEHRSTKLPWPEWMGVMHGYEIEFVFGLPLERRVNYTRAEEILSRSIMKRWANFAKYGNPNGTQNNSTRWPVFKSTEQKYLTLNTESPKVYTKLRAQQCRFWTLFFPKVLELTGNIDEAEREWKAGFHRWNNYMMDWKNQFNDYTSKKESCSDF
experiment.description: Inhibition of BCHE in Equus caballus (horse) serum using butyrylthiocholine iodide as substrate preincubated with enzyme for 15 min prior to substrate addition measured every 45 s by colorimetric Ellman's method
Provide the recorded pIC50 for the entries that follow.
Scale note: pIC50 = -log10(concentration in M).

Q: For CCOc1ccc(NCc2ccc(C)cc2)cc1 , what is its reported pIC50?
A: 5.39

Q: Record: O=C(/C=C/C(=O)N(Cc1ccccc1)c1ccc(Br)cc1)N(Cc1ccccc1)c1ccc(Br)cc1
A: 4.78

Q: Record: CCc1ccc(N(Cc2ccccc2)C(=O)/C=C/C(=O)N(Cc2ccccc2)c2ccc(CC)cc2)cc1
A: 4.31

Q: Record: COc1ccc(N(Cc2ccccc2)C(=O)/C=C/C(=O)N(Cc2ccccc2)c2ccc(OC)cc2)cc1
A: 4.36

Q: Record: Cc1ccc(CN(C(=O)/C=C/C(=O)N(Cc2ccc(C)cc2)c2ccc(I)cc2)c2ccc(I)cc2)cc1
A: 4.61

Q: Record: CCc1ccc(N(Cc2ccc(C)cc2)C(=O)/C=C/C(=O)N(Cc2ccc(C)cc2)c2ccc(CC)cc2)cc1
A: 4.35

----------
system.tested: Acetylcholinesterase (Electrophorus electricus, UniProt O42275)
Sequence (O42275 whole entry): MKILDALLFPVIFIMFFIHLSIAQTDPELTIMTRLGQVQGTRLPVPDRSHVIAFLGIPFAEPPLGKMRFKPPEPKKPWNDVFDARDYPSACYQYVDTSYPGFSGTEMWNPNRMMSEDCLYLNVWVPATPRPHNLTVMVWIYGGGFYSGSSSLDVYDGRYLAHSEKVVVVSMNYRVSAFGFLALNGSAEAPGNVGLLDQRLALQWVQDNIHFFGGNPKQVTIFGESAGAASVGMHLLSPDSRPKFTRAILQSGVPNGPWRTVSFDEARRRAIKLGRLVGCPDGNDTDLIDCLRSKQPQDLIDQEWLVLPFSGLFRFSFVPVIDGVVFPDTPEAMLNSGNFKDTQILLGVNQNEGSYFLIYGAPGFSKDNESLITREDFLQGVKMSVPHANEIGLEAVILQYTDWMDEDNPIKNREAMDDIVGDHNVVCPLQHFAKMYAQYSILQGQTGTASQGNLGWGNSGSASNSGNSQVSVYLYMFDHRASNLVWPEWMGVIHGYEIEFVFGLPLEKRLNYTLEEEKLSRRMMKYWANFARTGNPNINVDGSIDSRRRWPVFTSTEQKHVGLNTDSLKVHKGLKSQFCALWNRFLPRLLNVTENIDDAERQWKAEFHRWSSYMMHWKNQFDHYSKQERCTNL
Provide the recorded log10 of IC50 for the entries that follow.
A difference of one corresponds to tenfold IC50; all values are log10 with IC50 in µM.

Q: Give the reported log10 of IC50 for COc1ccc(N(Cc2ccccc2)C(=O)/C=C/C(=O)N(Cc2ccccc2)c2ccc(OC)cc2)cc1 (system: Acetylcholinesterase (Electrophorus electricus, UniProt O42275)).
A: 1.14

Q: Record: O=C(/C=C/C(=O)N(Cc1ccccc1)c1ccccc1)N(Cc1ccccc1)c1ccccc1
A: 1.07

Q: Record: Cc1ccc(N(Cc2ccccc2)C(=O)/C=C/C(=O)N(Cc2ccccc2)c2ccc(C)cc2)cc1
A: 1.10

Q: Record: O=C(/C=C/C(=O)N(Cc1ccccc1)c1ccc(F)cc1)N(Cc1ccccc1)c1ccc(F)cc1
A: 0.65

Q: Record: CCOc1ccc(N(Cc2ccc(C)cc2)C(=O)/C=C/C(=O)N(Cc2ccc(C)cc2)c2ccc(OCC)cc2)cc1
A: 0.35

Q: Record: CCOc1ccc(N(Cc2ccccc2)C(=O)/C=C/C(=O)N(Cc2ccccc2)c2ccc(OCC)cc2)cc1
A: 1.56

Q: Record: CCc1ccc(N(Cc2ccc(C)cc2)C(=O)/C=C/C(=O)N(Cc2ccc(C)cc2)c2ccc(CC)cc2)cc1
A: 1.47

Q: Record: Cc1ccc(CN(C(=O)/C=C/C(=O)N(Cc2ccc(C)cc2)c2ccc(F)cc2)c2ccc(F)cc2)cc1
A: 1.38

Q: Record: O=C(/C=C/C(=O)N(Cc1ccccc1)c1ccc(I)cc1)N(Cc1ccccc1)c1ccc(I)cc1
A: -0.01

Q: Record: CCc1ccc(N(Cc2ccccc2)C(=O)/C=C/C(=O)N(Cc2ccccc2)c2ccc(CC)cc2)cc1
A: 1.51

Q: Record: O=C(/C=C/C(=O)N(Cc1ccccc1)c1ccc(Cl)cc1)N(Cc1ccccc1)c1ccc(Cl)cc1
A: 0.40

Q: Record: COc1ccc(N(Cc2ccc(C)cc2)C(=O)/C=C/C(=O)N(Cc2ccc(C)cc2)c2ccc(OC)cc2)cc1
A: 1.05

Q: Record: c1ccc(CNc2ccccc2)cc1 [N-BENZYLANILINE]
A: 1.11

Q: Record: O=C(/C=C/C(=O)N(Cc1ccccc1)c1ccc(Br)cc1)N(Cc1ccccc1)c1ccc(Br)cc1
A: 0.91

The values you see were collected from ChEMBL document CHEMBL3046356.
